A collection of molecules and their measured inhibition
System Tested: Prostaglandin G/H synthase 2 (Homo sapiens);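 further: in vitro assay on recombinant human COX-2 produced in baculovirus-infected Sf9 insect cells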
Sequence (whole entry): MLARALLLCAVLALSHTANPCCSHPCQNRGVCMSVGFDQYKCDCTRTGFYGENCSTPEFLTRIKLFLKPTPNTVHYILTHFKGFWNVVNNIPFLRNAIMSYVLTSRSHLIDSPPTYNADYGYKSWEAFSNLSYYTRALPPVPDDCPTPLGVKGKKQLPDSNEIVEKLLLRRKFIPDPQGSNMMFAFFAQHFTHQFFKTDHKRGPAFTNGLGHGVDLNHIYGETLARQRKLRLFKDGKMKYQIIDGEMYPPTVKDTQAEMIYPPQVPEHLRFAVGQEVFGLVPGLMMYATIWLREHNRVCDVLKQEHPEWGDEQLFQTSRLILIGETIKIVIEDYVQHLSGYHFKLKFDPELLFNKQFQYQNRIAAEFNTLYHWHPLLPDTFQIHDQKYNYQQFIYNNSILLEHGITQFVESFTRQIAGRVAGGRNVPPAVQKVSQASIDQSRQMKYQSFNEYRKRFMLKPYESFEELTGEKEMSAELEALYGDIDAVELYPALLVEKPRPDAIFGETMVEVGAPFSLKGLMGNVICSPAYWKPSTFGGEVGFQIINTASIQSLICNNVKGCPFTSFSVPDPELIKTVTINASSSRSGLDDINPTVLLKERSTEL
Condition Label: Sf9; at 10 µM
Description: In vitro inhibitory activity against human recombinant prostaglandin G/H synthase 2 (COX-2) at 10 uM expressed in sf-9 cells infected with baculovirus
Measured Attribute: inhibition

# Structure As Smiles, Result
measured = [
    ("Cc1cc(-c2ccc(NS(C)(=O)=O)cc2)n(-c2ccc([N+](=O)[O-])cc2)n1", "0%"),
    ("CC(=O)N(c1ccc(-c2cc(C(F)F)nn2-c2ccc(Cl)cc2)cc1)S(C)(=O)=O", "17%"),
    ("CS(=O)(=O)Nc1ccc(-c2cc(C(F)(F)F)nn2-c2ccc(Cl)c(Cl)c2)cc1", "70%"),
    ("CS(=O)(=O)Nc1ccc(-c2cc(C(F)F)nn2-c2ccc(F)cc2)cc1", "62%"),
    ("CC(=O)Nc1ccc(-c2cc(C)nn2-c2ccc(Br)cc2)cc1", "80%"),
    ("CCCC(=O)N(c1ccc(-c2cc(C(F)(F)F)nn2-c2ccc(Cl)cc2)cc1)S(C)(=O)=O", "62%"),
    ("CS(=O)(=O)Nc1ccc(-c2cc(C(F)(F)F)nn2-c2ccccc2)cc1", "100%"),
    ("Cc1cc(-c2ccc(NS(C)(=O)=O)cc2)n(-c2ccc(Cl)cc2)n1", "88%"),
    ("CS(=O)(=O)Nc1ccc(-c2cc(C(F)F)nn2-c2ccccc2F)cc1", "89%"),
    ("CS(=O)(=O)Nc1ccc(-c2cc(C(F)(F)F)nn2-c2ccc(Br)cc2)cc1", "100%"),
]
